- Measured Target: KPC-2 (Klebsiella pneumoniae, UniProt Q9F663)
- Construct: made in house; host or cells: E. coli
- Sequence (Q9F663 25-293 limits assumed): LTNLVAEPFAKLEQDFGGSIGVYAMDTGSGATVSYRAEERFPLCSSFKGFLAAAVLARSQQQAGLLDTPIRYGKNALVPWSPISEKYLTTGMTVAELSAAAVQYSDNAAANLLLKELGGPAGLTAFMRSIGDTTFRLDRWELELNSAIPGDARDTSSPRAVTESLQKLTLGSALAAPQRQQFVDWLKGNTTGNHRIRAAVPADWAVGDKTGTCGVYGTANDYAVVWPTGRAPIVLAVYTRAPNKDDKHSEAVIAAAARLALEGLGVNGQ
- Measurement Protocol: β-lactamase inhibitory activity, determination of IC50 (nitrocefin hydrolysis)
- Assay type: biochemical
pIC50: −log10 of the molar value.
Metric: pIC50

[[record]]
compound = "O=C1N2CC=C(c3cnoc3)C(C2)N1OC(F)(F)C(=O)[O-].[Li+] (centres unmarked)"
value = 6.34

[[record]]
compound = "O=C1N2CC(c3ncco3)=C[C@H](C2)N1OC(F)(F)C(=O)O (racemic)"
value = 7.28


* * *

- Measured Target: OXA-48 (Klebsiella pneumoniae, UniProt Q6XEC0)
- Construct: made in house; host or cells: E. coli
- Sequence (Q6XEC0 23-265 limits assumed): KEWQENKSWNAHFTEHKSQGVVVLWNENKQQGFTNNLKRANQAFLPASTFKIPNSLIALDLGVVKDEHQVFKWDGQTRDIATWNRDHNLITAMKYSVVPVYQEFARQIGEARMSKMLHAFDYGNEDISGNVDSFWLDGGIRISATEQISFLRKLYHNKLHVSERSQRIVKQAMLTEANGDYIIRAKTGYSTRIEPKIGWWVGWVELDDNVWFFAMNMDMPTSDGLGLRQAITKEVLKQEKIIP
- Measurement Protocol: β-lactamase inhibitory activity, determination of IC50 (nitrocefin hydrolysis)
- Type: biochemical
- Condition Context: class (D); nitrocefin 200 μM, 30 min pre-incubation; read-out: IC50 β-lactamase OXA-48
Metric: IC50 (nM)

[[record]]
molecule = "O=C1N2CC=C(c3ccns3)C(C2)N1OS(=O)(=O)[O-].[Na+] (stereo not shown) [Example 30, sulfate]"
metric = "IC50"
value = 2.5

[[record]]
molecule = "O=C1N2CC=C(c3cnco3)C(C2)N1OS(=O)(=O)[O-].[Na+] (stereo not shown)"
metric = "IC50"
value = 3.5

[[record]]
molecule = "Cn1nc(C2=CCN3CC2N(OS(=O)(=O)[O-])C3=O)ccc1=O.[Na+] (stereo not shown) [Example 17, sulfate]"
metric = "IC50"
value = 3.9

[[record]]
molecule = "O=C1N2CC=C(c3cnccn3)C(C2)N1OS(=O)(=O)[O-].[Na+] (stereo not shown)"
metric = "IC50"
value = 3.2


* * *

- Measured Target: OXA-1 (Escherichia coli, UniProt P13661)
- Construct: made in house; host or cells: E. coli
- Sequence (P13661 26-276): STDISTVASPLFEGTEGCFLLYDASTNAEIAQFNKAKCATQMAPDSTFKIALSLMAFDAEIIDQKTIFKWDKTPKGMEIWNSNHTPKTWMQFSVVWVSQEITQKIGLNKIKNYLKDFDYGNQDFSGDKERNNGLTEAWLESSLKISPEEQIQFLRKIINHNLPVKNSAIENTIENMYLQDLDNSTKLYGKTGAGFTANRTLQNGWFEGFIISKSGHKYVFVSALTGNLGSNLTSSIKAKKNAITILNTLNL
- Measurement Protocol: β-lactamase inhibitory activity, determination of IC50 (nitrocefin hydrolysis)
- Format: biochemical
- Condition Context: class (D); nitrocefin 200 μM, 30 min pre-incubation; read-out: IC50 β-lactamase OXA-1
pIC50: −log10 of the molar value.
Is pIC50 at least 6? Then True. If not, False.

[[record]]
compound = "O=C1N2CC(c3nc4ccccc4s3)=CC(C2)N1OS(=O)(=O)[O-].[Na+] (centres unmarked) [Example 27, sulfate]"
assigned_category = "True"

[[record]]
compound = "NCc1cnc(C2=CC3CN(C2)C(=O)N3OS(=O)(=O)O)s1 (centres unmarked)"
assigned_category = "True"

[[record]]
compound = "Cn1cnc(C2=CCN3CC2N(OS(=O)(=O)[O-])C3=O)cc1=O.[Na+] (centres unmarked) [Example 20, sulfate]"
assigned_category = "False"

[[record]]
compound = "Cn1nccc1C1=CCN2CC1N(OS(=O)(=O)[O-])C2=O.[Na+] (centres unmarked) [Example 2, sulfate]"
assigned_category = "True"

[[record]]
compound = "Cn1nc(C2=CCN3CC2N(OS(=O)(=O)[O-])C3=O)ccc1=O.[Na+] (centres unmarked) [Example 17, sulfate]"
assigned_category = "True"


* * *

- Tested on: E. coli RGN238 (OXA-1)
- Measurement Protocol: MIC of compounds alone, broth microdilution
- Format: cell-based
- Condition Context: Escherichia coli; strain RGN238 (E. coli); read-out: MIC compounds of the invention alone
Property: MIC; scope: individual compounds
Metric: MIC

[[record]]
compound = "O=C1N2CC=C(c3ccncc3)C(C2)N1OS(=O)(=O)[O-].[Na+] (centres unmarked)"
measured_target = "E. coli RGN238 (OXA-1)"
value = "> 32 µg/mL"

[[record]]
compound = "O=C1N2CC=C(c3ccccn3)C(C2)N1OS(=O)(=O)[O-].[Na+] (centres unmarked)"
measured_target = "E. coli RGN238 (OXA-1)"
value = "> 32 µg/mL"

[[record]]
compound = "NCc1ncc(C2=CCN3CC2N(OS(=O)(=O)O)C3=O)s1 (centres unmarked)"
measured_target = "E. coli RGN238 (OXA-1)"
value = "> 32 µg/mL"

[[record]]
compound = "Cn1cc(C2=CCN3CC2N(OS(=O)(=O)[O-])C3=O)ccc1=O.[Na+] (centres unmarked)"
measured_target = "E. coli RGN238 (OXA-1)"
value = "> 32 µg/mL"

[[record]]
compound = "O=C1N2CC(c3cccnc3)=CC(C2)N1OS(=O)(=O)[O-].[Na+] (centres unmarked)"
measured_target = "E. coli RGN238 (OXA-1)"
value = "32 µg/mL"


* * *

- Measured Target: OXA-48 (Klebsiella pneumoniae)
- Construct: made in house; host or cells: E. coli
- Measurement Protocol: β-lactamase inhibitory activity, determination of IC50 (nitrocefin hydrolysis)
- Assay type: biochemical
pIC50: −log10 of the molar value.
Metric: pIC50

[[record]]
compound = "O=C1N2CC(c3ncco3)=C[C@H](C2)N1OC(F)(F)C(=O)O (racemic)"
measured_target = "OXA-48 (Klebsiella pneumoniae)"
metric = "pIC50"
value = 8.74

[[record]]
compound = "O=C1N2CC=C(c3cnoc3)C(C2)N1OC(F)(F)C(=O)[O-].[Li+] (centres unmarked)"
measured_target = "OXA-48 (Klebsiella pneumoniae)"
metric = "pIC50"
value = 8.43


* * *

- Measured Target: KPC-2 (Klebsiella pneumoniae)
- Construct: made in house; host or cells: E. coli
- Measurement Protocol: β-lactamase inhibitory activity, determination of IC50 (nitrocefin hydrolysis)
- Format: biochemical
- Condition Context: class (A); nitrocefin 200 μM, 30 min pre-incubation; read-out: IC50 β-lactamase KPC-2
Metric: log10 of IC50 (log10 of the value in nM)

[[record]]
compound = "O=C1N2CC(n3ccnc3)=CC(C2)N1OS(=O)(=O)[O-].[Na+] (centres unmarked)"
measured_target = "KPC-2 (Klebsiella pneumoniae)"
value = 1.38

[[record]]
compound = "Cn1nccc1C1=CCN2CC1N(OS(=O)(=O)[O-])C2=O.[Na+] (centres unmarked) [Example 2, sulfate]"
measured_target = "KPC-2 (Klebsiella pneumoniae)"
value = 3.08

[[record]]
compound = "Cn1nc(C2=CCN3CC2N(OS(=O)(=O)[O-])C3=O)ccc1=O.[Na+] (centres unmarked) [Example 17, sulfate]"
measured_target = "KPC-2 (Klebsiella pneumoniae)"
value = 2.11

[[record]]
compound = "COc1ncc(C2=CCN3CC2N(OS(=O)(=O)[O-])C3=O)cn1.[Na+] (centres unmarked) [Example 24, sulfate]"
measured_target = "KPC-2 (Klebsiella pneumoniae)"
value = 2.20

[[record]]
compound = "O=C1N2CC=C(c3cnccn3)C(C2)N1OS(=O)(=O)[O-].[Na+] (centres unmarked)"
measured_target = "KPC-2 (Klebsiella pneumoniae)"
value = 2.49

[[record]]
compound = "O=C1N2CC(c3cn[nH]c3)=CC(C2)N1OS(=O)(=O)[O-].[Na+] (centres unmarked) [Example 43, sulfate]"
measured_target = "KPC-2 (Klebsiella pneumoniae)"
value = 1.48

[[record]]
compound = "NCc1ncc(C2=CCN3CC2N(OS(=O)(=O)O)C3=O)s1 (centres unmarked)"
measured_target = "KPC-2 (Klebsiella pneumoniae)"
value = 2.48

[[record]]
compound = "O=C1N2CC=C(c3ncco3)C(C2)N1OS(=O)(=O)[O-].[Na+] (centres unmarked)"
measured_target = "KPC-2 (Klebsiella pneumoniae)"
value = 2.59


* * *

- System: E. coli UFR32 (TEM-1, VEB-1, OXA-10)
- Measurement Protocol: MIC of compounds alone, broth microdilution
- Format: cell-based
- Condition Context: Escherichia coli; strain UFR32 (E. coli); read-out: MIC compounds of the invention alone
Metric: MIC (µg/mL)

[[record]]
compound = "O=C1N2CC=C(c3cnco3)C(C2)N1OS(=O)(=O)[O-].[Na+] (stereo not drawn)"
metric = "MIC"
censor_symbol = ">"
value = 32

[[record]]
compound = "Cn1cc(C2=CCN3CC2N(OS(=O)(=O)[O-])C3=O)cnc1=O.[Na+] (stereo not drawn)"
metric = "MIC"
censor_symbol = "="
value = 1

[[record]]
compound = "O=C1N2CC(c3ncco3)=CC(C2)N1OS(=O)(=O)[O-].[Na+] (stereo not drawn)"
metric = "MIC"
censor_symbol = "="
value = 2

[[record]]
compound = "NCc1cnc(C2=CC3CN(C2)C(=O)N3OS(=O)(=O)O)s1 (stereo not drawn)"
metric = "MIC"
censor_symbol = "="
value = 32

[[record]]
compound = "Cn1ncc(C2=CCN3CC2N(OS(=O)(=O)[O-])C3=O)cc1=O.[Na+] (stereo not drawn)"
metric = "MIC"
censor_symbol = ">"
value = 32

[[record]]
compound = "O=C1N2CC(c3ccncc3)=CC(C2)N1OS(=O)(=O)[O-].[Na+] (stereo not drawn)"
metric = "MIC"
censor_symbol = "="
value = 8

[[record]]
compound = "O=C1N2CC(c3cccnc3)=CC(C2)N1OS(=O)(=O)[O-].[Na+] (stereo not drawn)"
metric = "MIC"
censor_symbol = "="
value = 8

[[record]]
compound = "O=C1N2CC=C(c3cnoc3)C(C2)N1OS(=O)(=O)[O-].[Na+] (stereo not drawn)"
metric = "MIC"
censor_symbol = "="
value = 1

[[record]]
compound = "O=C1N2CC(c3ncco3)=C[C@H](C2)N1OS(=O)(=O)[O-].[Na+]"
metric = "MIC"
censor_symbol = "="
value = 1

